Assay: Solid-state stability (HPLC purity and crystal form by XRPD after storage)
Type: physicochemical
Conditions: solid state, open, 40 °C/75% RH/open, 2 weeks; HPLC
ASSAY_ENDPOINT: HPLC purity after storage at 336 h (%)
Express your answer in %, writing the number without its unit.

CNCc1ccc(NS(=O)(=O)c2ccsc2)c(-c2ccco2)c1 [free crystal form A] yielded HPLC purity after storage at 336 h of 98.2

* * *

Experiment: Solid-state stability (HPLC purity and crystal form by XRPD after storage)
Type: physicochemical
Settings: 40 °C/75% RH/open, 4 weeks; HPLC; 40320 min
Counter-ions that a name gives are not always drawn.
ASSAY_ENDPOINT: Purity
Please report the result as a number followed by the unit.

CNCc1ccc(NS(=O)(=O)c2ccsc2)c(-c2ccco2)c1 [succinate crystal form E] yielded Purity of 98.98 area %

CNCc1ccc(NS(=O)(=O)c2ccsc2)c(-c2ccco2)c1 [malate crystal form F] yielded Purity of 98.68 area %

CNCc1ccc(NS(=O)(=O)c2ccsc2)c(-c2ccco2)c1 [Tartrate crystal form H] yielded Purity of 98.53 area %

CNCc1ccc(NS(=O)(=O)c2ccsc2)c(-c2ccco2)c1 [fumarate crystal form B] yielded Purity of 98.52 area %

CNCc1ccc(NS(=O)(=O)c2ccsc2)c(-c2ccco2)c1 [Pyroglutamate crystal form I] yielded Purity of 98.32 area %

CNCc1ccc(NS(=O)(=O)c2ccsc2)c(-c2ccco2)c1 [hydrochloride crystal form C] yielded Purity of 99 area %

CNCc1ccc(NS(=O)(=O)c2ccsc2)c(-c2ccco2)c1 [Malonate crystal form K] yielded Purity of 98.46 area %

CNCc1ccc(NS(=O)(=O)c2ccsc2)c(-c2ccco2)c1 [Phosphate crystal form G] yielded Purity of 98.01 area %

CNCc1ccc(NS(=O)(=O)c2ccsc2)c(-c2ccco2)c1 [sulfate crystal form D] yielded Purity of 98.78 area %

CNCc1ccc(NS(=O)(=O)c2ccsc2)c(-c2ccco2)c1 [benzene sulfonate crystal form J] yielded Purity of 98.79 area %

* * *

Provide the recorded Purity for the entries that follow.
Assay: Solid-state stability (HPLC purity and crystal form by XRPD after storage)
Type: physicochemical
Details: 40 °C/75% RH/open, 2 weeks; HPLC; 20160 min
Structures can show the parent of a compound that is named as a salt.
Express your answer in area %, writing the number without its unit.

CNCc1ccc(NS(=O)(=O)c2ccsc2)c(-c2ccco2)c1 [Tartrate crystal form H] yielded Purity of 98.6

CNCc1ccc(NS(=O)(=O)c2ccsc2)c(-c2ccco2)c1 [malate crystal form F] yielded Purity of 98.75

CNCc1ccc(NS(=O)(=O)c2ccsc2)c(-c2ccco2)c1 [fumarate crystal form B] yielded Purity of 98.5

CNCc1ccc(NS(=O)(=O)c2ccsc2)c(-c2ccco2)c1 [succinate crystal form E] yielded Purity of 98.72

CNCc1ccc(NS(=O)(=O)c2ccsc2)c(-c2ccco2)c1 [benzene sulfonate crystal form J] yielded Purity of 98.82

CNCc1ccc(NS(=O)(=O)c2ccsc2)c(-c2ccco2)c1 [sulfate crystal form D] yielded Purity of 98.65

CNCc1ccc(NS(=O)(=O)c2ccsc2)c(-c2ccco2)c1 [Phosphate crystal form G] yielded Purity of 98.06

CNCc1ccc(NS(=O)(=O)c2ccsc2)c(-c2ccco2)c1 [Malonate crystal form K] yielded Purity of 98.58

CNCc1ccc(NS(=O)(=O)c2ccsc2)c(-c2ccco2)c1 [Pyroglutamate crystal form I] yielded Purity of 98.54

CNCc1ccc(NS(=O)(=O)c2ccsc2)c(-c2ccco2)c1 [hydrochloride crystal form C] yielded Purity of 98.9

* * *

Assay: Solid-state stability (HPLC purity and crystal form by XRPD after storage)
Assay type: physicochemical
Settings: solid state, open, 25 °C/60% RH/open, 2 weeks; HPLC
ASSAY_ENDPOINT: HPLC purity after storage at 336 h (%)
Express your answer in %, writing the number without its unit.

CNCc1ccc(NS(=O)(=O)c2ccsc2)c(-c2ccco2)c1 [fumarate crystal form B] yielded HPLC purity after storage at 336 h of 98.5

These measurements were taken from patent US20260297068A1.
